Assign MFC to each entry below.
# Tested on: Candida albicans
# ASSAY_COMMENT: In vitro Fungicidal activity (MFC) against Candida albicans (MY 1055).
# Format: functional
Numbered stars: 1 amine (or outer) side, 2 acyl side, 3 side chain; on linkers, the order of the positions; unused ones are H or OH. Bridge positions count the residues as written; N and C are the ends. Square brackets hold non-standard residues; d marks the D form. Peptide text beside a SMILES is read from it. * marks the point of attachment. Orn(4R-OH,5R-OH) = O=C([C@H](C[C@@H](O)[C@@H](O)N[*:3])N[*:1])[*:2]; hTyr(3S-OH,4S-OH) = N[C@H](C(=O)O)[C@H](O)[C@@H](O)c1ccc(O)cc1; X16 = COC(=O)CCCCCNC(=O)C[C@@H](O)[C@H](N[*:1])C(=O)[*:2]; Orn(4R-OH) = O=C([C@H](C[C@@H](O)CN[*:3])N[*:1])[*:2]; X6 = C[N+](C)(C)CC[C@@H](O)[C@H](N[*:1])C(=O)[*:2]; hTyr(3R-OH) = N[C@H](C(=O)O)[C@H](O)Cc1ccc(O)cc1; X17 = O=C([C@@H](N[*:1])[C@H](O)CCO)[*:2]; Pro(3S-OH) = O=C(O)[C@H]1NCC[C@@H]1O; Hyp = O=C(O)[C@@H]1C[C@@H](O)CN1; X1 = CCC(C)CC(C)CCCCCCCCC(=O)*
Numbers only, in µg/mL.

Previously resolved entries follow.
{"MOLECULE": "CCC(C)CC(C)CCCCCCCCC(=O)N[C@H]1C[C@@H](O)CNC(=O)[C@@H]2[C@@H](O)CCN2C(=O)[C@H]([C@H](O)CCO)NC(=O)[C@H]([C@H](O)Cc2ccc(O)cc2)NC(=O)[C@@H]2C[C@@H](O)CN2C(=O)[C@H]([C@@H](C)O)NC1=O (stereo partly drawn) (X1-[Orn(4R-OH)]T[Hyp][hTyr(3R-OH)][X17][Pro(3S-OH)]; lactam 1-C)", "TARGET_OR_SYSTEM": "Candida albicans", "MFC, µg/mL": 1}
{"MOLECULE": "CCC(C)CC(C)CCCCCCCCC(=O)N[C@H]1C[C@@H](O)[C@@H](O)NC(=O)[C@@H]2[C@@H](O)CCN2C(=O)[C@H]([C@H](O)CC[N+](C)(C)C)NC(=O)[C@H]([C@H](O)[C@@H](O)c2ccc(O)cc2)NC(=O)[C@@H]2C[C@@H](O)CN2C(=O)[C@H]([C@@H](C)O)NC1=O (stereo partly drawn) (X1-[Orn(4R-OH,5R-OH)]T[Hyp][hTyr(3S-OH,4S-OH)][X6][Pro(3S-OH)]; lactam 1-C)", "TARGET_OR_SYSTEM": "Candida albicans", "MFC, µg/mL": 0.125}

Kindly review the next molecule as well.
Quick one: MFC for CCC(C)CC(C)CCCCCCCCC(=O)N[C@H]1C[C@@H](O)CNC(=O)[C@@H]2[C@@H](O)CCN2C(=O)[C@H]([C@H](O)CC(=O)NCCCCCC(=O)OC)NC(=O)[C@H]([C@H](O)Cc2ccc(O)cc2)NC(=O)[C@@H]2C[C@@H](O)CN2C(=O)[C@H]([C@@H](C)O)NC1=O (stereo partly drawn) (X1-[Orn(4R-OH)]T[Hyp][hTyr(3R-OH)][X16][Pro(3S-OH)]; lactam 1-C) ? 4

* * *

# System: Candida albicans
# ASSAY_COMMENT: In vitro Fungicidal activity (MFC) against Candida albicans (MY 1055).
# Assay type: functional
Numbered stars: 1 amine (or outer) side, 2 acyl side, 3 side chain; on linkers, the order of the positions; unused ones are H or OH. Bridge positions count the residues as written; N and C are the ends. Square brackets hold non-standard residues; d marks the D form. Peptide text beside a SMILES is read from it. * marks the point of attachment. Orn(4R-OH,5R-OH) = O=C([C@H](C[C@@H](O)[C@@H](O)N[*:3])N[*:1])[*:2]; hTyr(3S-OH,4S-OH) = N[C@H](C(=O)O)[C@H](O)[C@@H](O)c1ccc(O)cc1; X8 = O=C(O)CCCCCNC(=O)C[C@@H](O)[C@H](N[*:1])C(=O)[*:2]; Orn(4R-OH) = O=C([C@H](C[C@@H](O)CN[*:3])N[*:1])[*:2]; X10 = N#CCN(CC#N)CC[C@@H](O)[C@H](N[*:1])C(=O)[*:2]; hTyr(3R-OH) = N[C@H](C(=O)O)[C@H](O)Cc1ccc(O)cc1; X11 = COC(=O)C[C@@H](O)[C@H](N[*:1])C(=O)[*:2]; Pro(3S-OH) = O=C(O)[C@H]1NCC[C@@H]1O; Hyp = O=C(O)[C@@H]1C[C@@H](O)CN1; X1 = CCC(C)CC(C)CCCCCCCCC(=O)*
RECORDED_METRIC: MFC
Lab note: write values as number then unit, every time.

{"MOLECULE": "CCC(C)CC(C)CCCCCCCCC(=O)N[C@H]1C[C@@H](O)[C@@H](O)NC(=O)[C@@H]2[C@@H](O)CCN2C(=O)[C@H]([C@H](O)CCN(CC#N)CC#N)NC(=O)[C@H]([C@H](O)[C@@H](O)c2ccc(O)cc2)NC(=O)[C@@H]2C[C@@H](O)CN2C(=O)[C@H]([C@@H](C)O)NC1=O (stereo partly drawn) (X1-[Orn(4R-OH,5R-OH)]T[Hyp][hTyr(3S-OH,4S-OH)][X10][Pro(3S-OH)]; lactam 1-C)", "RECORDED_METRIC": "MFC", "VAL": "4 µg/mL"}

Please state MFC for every molecule in the list that follows.
1. CCC(C)CC(C)CCCCCCCCC(=O)N[C@H]1C[C@@H](O)CNC(=O)[C@@H]2[C@@H](O)CCN2C(=O)[C@H]([C@H](O)CC(=O)OC)NC(=O)[C@H]([C@H](O)Cc2ccc(O)cc2)NC(=O)[C@@H]2C[C@@H](O)CN2C(=O)[C@H]([C@@H](C)O)NC1=O (stereo partly drawn) (X1-[Orn(4R-OH)]T[Hyp][hTyr(3R-OH)][X11][Pro(3S-OH)]; lactam 1-C)
2. CCC(C)CC(C)CCCCCCCCC(=O)N[C@H]1C[C@@H](O)CNC(=O)[C@@H]2[C@@H](O)CCN2C(=O)[C@H]([C@H](O)CC(=O)NCCCCCC(=O)O)NC(=O)[C@H]([C@H](O)Cc2ccc(O)cc2)NC(=O)[C@@H]2C[C@@H](O)CN2C(=O)[C@H]([C@@H](C)O)NC1=O (stereo partly drawn) (X1-[Orn(4R-OH)]T[Hyp][hTyr(3R-OH)][X8][Pro(3S-OH)]; lactam 1-C)

0.5 µg/mL
2 µg/mL

* * *

# ASSAY_COMMENT: In vivo anti-Candida activity was determined in a mouse model of disseminated candidiasis (TOKA).
# Assay type: functional
Numbered stars: 1 amine (or outer) side, 2 acyl side, 3 side chain; on linkers, the order of the positions; unused ones are H or OH. Bridge positions count the residues as written; N and C are the ends. Square brackets hold non-standard residues; d marks the D form. Peptide text beside a SMILES is read from it. * marks the point of attachment. Orn(4R-OH,5R-OH) = O=C([C@H](C[C@@H](O)[C@@H](O)N[*:3])N[*:1])[*:2]; hTyr(3S-OH,4S-OH) = N[C@H](C(=O)O)[C@H](O)[C@@H](O)c1ccc(O)cc1; Orn(4R-OH) = O=C([C@H](C[C@@H](O)CN[*:3])N[*:1])[*:2]; X15 = NCCCCCCNC(=O)C[C@@H](O)[C@H](N[*:1])C(=O)[*:2]; X6 = C[N+](C)(C)CC[C@@H](O)[C@H](N[*:1])C(=O)[*:2]; hTyr(3R-OH) = N[C@H](C(=O)O)[C@H](O)Cc1ccc(O)cc1; Orn(3R-OH) = NCC[C@@H](O)[C@H](N)C(=O)O; Pro(3S-OH) = O=C(O)[C@H]1NCC[C@@H]1O; Hyp = O=C(O)[C@@H]1C[C@@H](O)CN1; X1 = CCC(C)CC(C)CCCCCCCCC(=O)*
RECORDED_METRIC: ED99.9

Previously resolved entries follow.
{"COMPOUND": "CCC(C)CC(C)CCCCCCCCC(=O)N[C@H]1C[C@@H](O)[C@@H](O)NC(=O)[C@@H]2[C@@H](O)CCN2C(=O)[C@H]([C@H](O)CC[N+](C)(C)C)NC(=O)[C@H]([C@H](O)[C@@H](O)c2ccc(O)cc2)NC(=O)[C@@H]2C[C@@H](O)CN2C(=O)[C@H]([C@@H](C)O)NC1=O (stereo partly drawn) (X1-[Orn(4R-OH,5R-OH)]T[Hyp][hTyr(3S-OH,4S-OH)][X6][Pro(3S-OH)]; lactam 1-C)", "VAL": "0.375 mg/kg"}
{"COMPOUND": "CCC(C)CC(C)CCCCCCCCC(=O)N[C@H]1C[C@@H](O)[C@@H](O)NC(=O)[C@@H]2[C@@H](O)CCN2C(=O)[C@H]([C@H](O)CCN)NC(=O)[C@H]([C@H](O)[C@@H](O)c2ccc(O)cc2)NC(=O)[C@@H]2C[C@@H](O)CN2C(=O)[C@H]([C@@H](C)O)NC1=O (stereo partly drawn) (X1-[Orn(4R-OH,5R-OH)]T[Hyp][hTyr(3S-OH,4S-OH)][Orn(3R-OH)][Pro(3S-OH)]; lactam 1-C)", "VAL": "0.375 mg/kg"}

Quick one: ED99.9 for CCC(C)CC(C)CCCCCCCCC(=O)N[C@H]1C[C@@H](O)CNC(=O)[C@@H]2[C@@H](O)CCN2C(=O)[C@H]([C@H](O)CC(=O)NCCCCCCN)NC(=O)[C@H]([C@H](O)Cc2ccc(O)cc2)NC(=O)[C@@H]2C[C@@H](O)CN2C(=O)[C@H]([C@@H](C)O)NC1=O (stereo partly drawn) (X1-[Orn(4R-OH)]T[Hyp][hTyr(3R-OH)][X15][Pro(3S-OH)]; lactam 1-C) ? >6 mg/kg
